target: Mu-type opioid receptor (Homo sapiens, UniProt P35372); test: Agonist activity at human mu opioid receptor expressed in CHO cells assessed as stimulation of calcium mobilization by Fluo-4 AM dye based analysis
Sequence (P35372 whole entry): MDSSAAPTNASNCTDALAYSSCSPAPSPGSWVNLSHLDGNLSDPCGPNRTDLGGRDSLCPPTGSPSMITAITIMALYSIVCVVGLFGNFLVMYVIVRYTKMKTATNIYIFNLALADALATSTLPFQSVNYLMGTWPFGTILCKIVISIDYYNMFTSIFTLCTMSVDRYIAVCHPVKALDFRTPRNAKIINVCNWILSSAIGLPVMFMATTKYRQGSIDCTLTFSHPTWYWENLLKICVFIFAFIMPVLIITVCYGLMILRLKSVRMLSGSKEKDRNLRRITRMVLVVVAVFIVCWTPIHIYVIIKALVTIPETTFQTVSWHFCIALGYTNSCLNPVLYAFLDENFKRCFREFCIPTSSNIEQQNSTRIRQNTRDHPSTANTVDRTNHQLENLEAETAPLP
Where a SMILES comes first, the peptide text is derived from it. [ ]: non-standard residue; d: D form. Dmt = Cc1cc(O)cc(C)c1C[C@H](N)C(=O)O; Phg = N[C@H](C(=O)O)c1ccccc1
// EC50 lookup, one value per entry
Respond numerically; units are nM and should not be typed.

Would you mind telling me what EC50 value was observed for Cc1cc(O)cc(C)c1C[C@H](N)C(=O)NCC(=O)NCC(=O)N[C@@H](Cc1ccccc1)C(=O)N[C@H](C(=O)NCC(=O)N[C@@H](C)C(=O)N[C@@H](CCCNC(=N)N)C(=O)N[C@@H](CCCCN)C(=O)N[C@@H](CO)C(=O)N[C@@H](C)C(=O)N[C@@H](CCCNC(=N)N)C(=O)N[C@@H](CCCCN)C(N)=O)[C@@H](C)O ?
42.7

New cases:
Would you mind telling me what EC50 value was observed for Cc1cc(O)cc(C)c1C[C@H](N)C(=O)NCC(=O)NCC(=O)N[C@@H](Cc1ccccc1)C(=O)N[C@H](C(=O)NCC(=O)N[C@@H](C)C(=O)N[C@@H](CCCNC(=N)N)C(=O)N[C@@H](CCCCN)C(=O)N[C@@H](CO)C(=O)N[C@@H](C)C(=O)N[C@@H](CCCNC(=N)N)C(=O)N[C@@H](CCCCN)C(N)=O)c1ccccc1 (H-[Dmt]GGF[Phg]GARKSARK-NH2) ?
2.88

Would you mind telling me what EC50 value was observed for Cc1cc(O)cc(C)c1C[C@H](N)C(=O)NCC(=O)NCC(=O)N[C@@H](Cc1ccccc1)C(=O)N[C@@H](Cc1ccccc1)C(=O)NCC(=O)N[C@@H](C)C(=O)N[C@@H](CCCNC(=N)N)C(=O)N[C@@H](CCCCN)C(=O)N[C@@H](CO)C(=O)N[C@@H](C)C(=O)N[C@@H](CCCNC(=N)N)C(=O)N[C@@H](CCCCN)C(N)=O (H-[Dmt]GGFFGARKSARK-NH2) ?
6.46

* * *

// EC50 lookup, one value per entry
target: Nociceptin receptor (Homo sapiens, UniProt P41146); test: Agonist activity at human NOP receptor expressed in CHO cells assessed as stimulation of calcium mobilization by Fluo-4 AM dye based analysis
Sequence (P41146 whole entry): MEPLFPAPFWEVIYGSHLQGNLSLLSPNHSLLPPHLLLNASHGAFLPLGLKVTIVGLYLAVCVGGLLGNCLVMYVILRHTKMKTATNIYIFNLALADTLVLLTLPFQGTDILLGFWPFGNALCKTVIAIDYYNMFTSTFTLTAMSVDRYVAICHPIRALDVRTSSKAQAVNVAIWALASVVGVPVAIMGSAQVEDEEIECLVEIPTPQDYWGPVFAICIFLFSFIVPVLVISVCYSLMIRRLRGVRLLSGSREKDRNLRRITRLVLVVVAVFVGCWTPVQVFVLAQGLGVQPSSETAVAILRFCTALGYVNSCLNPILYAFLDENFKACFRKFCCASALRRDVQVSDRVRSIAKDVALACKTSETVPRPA
Where a SMILES comes first, the peptide text is derived from it. [ ]: non-standard residue; d: D form. Phe(4-F) = N[C@@H](Cc1ccc(F)cc1)C(=O)O
Respond numerically; units are nM and should not be typed.

Would you mind telling me what EC50 value was observed for COc1ccc(C[C@H](NC(=O)[C@H](Cc2ccccc2)NC(=O)CNC(=O)CNC(=O)[C@@H](N)Cc2ccc(O)cc2)C(=O)NCC(=O)N[C@@H](C)C(=O)N[C@@H](CCCNC(=N)N)C(=O)N[C@@H](CCCCN)C(=O)N[C@@H](CO)C(=O)N[C@@H](C)C(=O)N[C@@H](CCCNC(=N)N)C(=O)N[C@@H](CCCCN)C(N)=O)cc1 (H-YGGFY(Me)GARKSARK-NH2) ?
13.2

Would you mind telling me what EC50 value was observed for C[C@H](NC(=O)CNC(=O)[C@H](Cc1ccc(F)cc1)NC(=O)[C@H](Cc1ccccc1)NC(=O)CNC(=O)CNC(=O)[C@@H](N)Cc1ccc(O)cc1)C(=O)N[C@@H](CCCNC(=N)N)C(=O)N[C@@H](CCCCN)C(=O)N[C@@H](CO)C(=O)N[C@@H](C)C(=O)N[C@@H](CCCNC(=N)N)C(=O)N[C@@H](CCCCN)C(N)=O (H-YGGF[Phe(4-F)]GARKSARK-NH2) ?
49

New cases:
Would you mind telling me what EC50 value was observed for Cc1cc(O)cc(C)c1C[C@H](N)C(=O)NCC(=O)NCC(=O)N[C@@H](Cc1ccccc1)C(=O)N[C@H](C(=O)NCC(=O)N[C@@H](C)C(=O)N[C@@H](CCCNC(=N)N)C(=O)N[C@@H](CCCCN)C(=O)N[C@@H](CO)C(=O)N[C@@H](C)C(=O)N[C@@H](CCCNC(=N)N)C(=O)N[C@@H](CCCCN)C(N)=O)[C@@H](C)O ?
2.69
